FYI, the data here is from patent US20220177583A1.

- testedTarget: human CLDN6 fused to GFP, expressed on engineered HEK293T cells (human) (UniProt P56747)
- methodSummary: FACS dose curve, labelled mAb, HEK293T-CLDN6-mGFP cells
measureName: pEC50
Convention used: pEC50 is expressed as -log10 of the molar concentration.

Worked cases, answers included:
Query string: Name the recorded pEC50 for AB1 (antibody, V domains shown) VH: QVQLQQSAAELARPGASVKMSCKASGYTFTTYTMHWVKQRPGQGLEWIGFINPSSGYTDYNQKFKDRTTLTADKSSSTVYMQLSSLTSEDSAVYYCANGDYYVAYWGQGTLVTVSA VL: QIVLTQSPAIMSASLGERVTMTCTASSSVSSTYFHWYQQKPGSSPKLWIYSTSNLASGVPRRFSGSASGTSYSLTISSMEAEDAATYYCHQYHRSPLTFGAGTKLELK .
Result string: 6.96

Query string: Name the recorded pEC50 for AB15 (antibody, V domains shown) VH: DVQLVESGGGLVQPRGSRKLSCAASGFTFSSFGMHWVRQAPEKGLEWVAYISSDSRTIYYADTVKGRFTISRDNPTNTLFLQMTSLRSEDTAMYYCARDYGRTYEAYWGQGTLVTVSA VL: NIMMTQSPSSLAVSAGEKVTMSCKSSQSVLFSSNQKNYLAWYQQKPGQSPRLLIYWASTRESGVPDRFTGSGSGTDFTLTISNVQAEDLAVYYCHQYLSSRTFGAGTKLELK .
Result string: 5.30

New cases:
Query string: Name the recorded pEC50 for AB17 (antibody, V domains shown) VH: QVQLQQSGAELAKPGASVKMSCKASGYTFTGYWMHWVKQRPGQGLEWLGYINPSTGYTESNQKFKDKATLTADKSSTTAYMQLRSLTPEDSAVYYCAREGITTVLVDYWGQGTTLTVSS VL: QIVLTQSPAIMSASLGERVTMTCTASSSVSSSYLHWYQQKPGSSPKLWIYSTSNLASGVPARFSGSGSGTSYSLTISSMEAEDAATYYCHQYHRSPPTFGAGTKLELK .
Result string: 5.58
